Answer each item with its documented shrunken log2 fold change.
# System: Escherichia coli TOP10;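 note: peptides expressed intracellularly from a pBAD plasmid library in pooled LB shake-flask culture, induced with 0.3% L-arabinose, DNA abundance read by NGS, three biological replicates, DESeq2 with apeglm shrinkage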
# Test Description: shrunken log2 fold change of peptide-encoding DNA abundance (4.5 h post-induction vs induction); higher = less antimicrobial activity (less host growth inhibition)
# Assay Context: time post-induction: 4.5 h; library: site-saturation at positions 5, 18, 19, 20
// no unit string in output, number only

Form field: reported shrunken log2 fold change of RRIRPRPPRLPRPRPRPFREPRP 0.261

Form field: reported shrunken log2 fold change of RRIRRRPPRLPRPRPRPFDPPRP 0.504

Form field: reported shrunken log2 fold change of RRIRVRPPRLPRPRPRPYYCPRP -0.513
